Reference source: patent US20260191825A1

- Assay Explanation: Dog 28-day repeat-dose GLP toxicity study
- Assay type: in vivo
- Condition Info: male, Beagle, in vivo; dog, 28-day repeat-dose
Readout Type: NOAEL at 28 days (mg/kg)
Express it in mg/kg; write the number only.

*Q* For the compound shown here, Cc1ccc(C2=CC(C)(C)Oc3ccc(-c4ccc(-c5ccc(C(=O)O)cc5)[nH]4)cc32)cc1 [Compound A] , give the reported NOAEL at 28 days.
*A* 5
